study-system: human calcium receptor (Homo sapiens, UniProt P41180)
Construct: expressed in transfected cells; host or cells: cell strain derived from rat adrenal, co-transfected with luciferase cDNA
Sequence (P41180 20-1078): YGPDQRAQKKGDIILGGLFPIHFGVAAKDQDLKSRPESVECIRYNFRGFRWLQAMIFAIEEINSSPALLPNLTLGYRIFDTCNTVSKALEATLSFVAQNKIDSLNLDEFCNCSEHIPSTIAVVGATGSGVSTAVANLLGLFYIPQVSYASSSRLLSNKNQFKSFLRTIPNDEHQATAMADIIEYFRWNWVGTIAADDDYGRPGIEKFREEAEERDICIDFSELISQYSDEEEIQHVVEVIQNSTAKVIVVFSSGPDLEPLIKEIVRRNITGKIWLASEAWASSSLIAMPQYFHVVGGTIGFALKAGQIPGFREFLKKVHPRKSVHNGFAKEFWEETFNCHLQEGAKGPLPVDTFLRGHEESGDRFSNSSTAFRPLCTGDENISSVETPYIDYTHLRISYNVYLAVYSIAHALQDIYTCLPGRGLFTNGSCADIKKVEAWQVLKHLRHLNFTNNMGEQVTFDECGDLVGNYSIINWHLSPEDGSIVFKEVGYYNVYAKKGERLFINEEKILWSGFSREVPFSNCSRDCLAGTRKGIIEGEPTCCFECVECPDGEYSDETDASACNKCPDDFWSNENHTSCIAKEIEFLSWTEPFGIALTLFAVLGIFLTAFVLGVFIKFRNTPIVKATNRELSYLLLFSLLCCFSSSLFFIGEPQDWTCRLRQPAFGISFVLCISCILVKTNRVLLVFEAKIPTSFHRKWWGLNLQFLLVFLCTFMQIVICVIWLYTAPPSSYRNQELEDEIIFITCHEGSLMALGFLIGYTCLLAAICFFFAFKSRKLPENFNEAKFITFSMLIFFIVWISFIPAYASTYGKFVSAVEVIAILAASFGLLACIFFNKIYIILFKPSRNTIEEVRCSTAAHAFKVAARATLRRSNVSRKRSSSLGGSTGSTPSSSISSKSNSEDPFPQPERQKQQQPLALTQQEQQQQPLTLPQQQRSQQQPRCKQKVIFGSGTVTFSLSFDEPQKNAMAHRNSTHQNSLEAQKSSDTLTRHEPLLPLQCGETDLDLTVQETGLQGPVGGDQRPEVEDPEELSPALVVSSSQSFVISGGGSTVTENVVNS
test-name: Evaluation of antagonistic action on calcium receptor using reporter gene (luciferase)
Type: cell-based
particulars: rat adrenal derived cells with luciferase and human calcium receptor cDNA, 5 mM calcium chloride, 4 hrs; read-out: IC50 (concentration showing 50% inhibitory rate of luciferase activity)
pIC50: −log10 of the molar value.
outcome-measure: pIC50

Examples with their reported pIC50 follow.
{"columns": ["compound", "pIC50"],
 "data": [
  ["C[C@@H](OC[C@H](O)CNC(C)(C)Cc1ccc2ccccc2c1)c1ccccc1-c1ccc(P(=O)(O)O)cc1 [Example 12]", 7.54],
  ["CC(OC[C@H](O)CNC(C)(C)Cc1ccc2ccccc2c1)c1ccccc1-c1ccc(-c2nc(=O)o[nH]2)cc1 (some centres unmarked) [Example 19]", 7.74],
  ["CC(OC[C@H](O)CNC(C)(C)Cc1ccc2ccccc2c1)c1ccccc1OCC(=O)O (some centres unmarked) [Example 22]", 6.63]
]}

A = CC(OC(=O)OC1CCCCC1)OC(=O)c1ccc(-c2ccccc2C(C)OC[C@H](O)CNC(C)(C)Cc2ccc3ccccc3c2)cc1 (some centres unmarked) [Example 8]
B = CC(OC[C@H](O)CNC(C)(C)Cc1ccc2ccccc2c1)c1ccccc1-c1ccc(-c2nnn[nH]2)cc1 (some centres unmarked) [Example 7]
C = Cc1ccc(CC(C)(C)NC[C@@H](O)CO[C@H](C)c2ccccc2OCc2ccc(C(=O)O)s2)cc1F [Example 30]
Query string: Order field: pIC50 | Direction: descending (largest first) Use the labels to give the ranking in the order requested.
Result string: B, A, C
(B: 7.96, A: 7.68, C: 6.74)

a = C[C@@H](OC[C@H](O)CNC(C)(C)Cc1ccc2ccccc2c1)c1ccccc1CCC(=O)O [Example 1]
b = C=Cc1ccc(CC(C)(C)NC[C@@H](O)CO[C@H](C)c2ccccc2-c2ccc(C(=O)O)cc2)cc1 [Example 27]
Query string: Which value of pIC50 is numerically greater: that of a or that of b ? Record your answer as the label of the chosen record.
Result string: b
